Data credit: patent US11040981B2

Biological target: AXL (Homo sapiens, UniProt P30530)
Sequence (P30530 26-894): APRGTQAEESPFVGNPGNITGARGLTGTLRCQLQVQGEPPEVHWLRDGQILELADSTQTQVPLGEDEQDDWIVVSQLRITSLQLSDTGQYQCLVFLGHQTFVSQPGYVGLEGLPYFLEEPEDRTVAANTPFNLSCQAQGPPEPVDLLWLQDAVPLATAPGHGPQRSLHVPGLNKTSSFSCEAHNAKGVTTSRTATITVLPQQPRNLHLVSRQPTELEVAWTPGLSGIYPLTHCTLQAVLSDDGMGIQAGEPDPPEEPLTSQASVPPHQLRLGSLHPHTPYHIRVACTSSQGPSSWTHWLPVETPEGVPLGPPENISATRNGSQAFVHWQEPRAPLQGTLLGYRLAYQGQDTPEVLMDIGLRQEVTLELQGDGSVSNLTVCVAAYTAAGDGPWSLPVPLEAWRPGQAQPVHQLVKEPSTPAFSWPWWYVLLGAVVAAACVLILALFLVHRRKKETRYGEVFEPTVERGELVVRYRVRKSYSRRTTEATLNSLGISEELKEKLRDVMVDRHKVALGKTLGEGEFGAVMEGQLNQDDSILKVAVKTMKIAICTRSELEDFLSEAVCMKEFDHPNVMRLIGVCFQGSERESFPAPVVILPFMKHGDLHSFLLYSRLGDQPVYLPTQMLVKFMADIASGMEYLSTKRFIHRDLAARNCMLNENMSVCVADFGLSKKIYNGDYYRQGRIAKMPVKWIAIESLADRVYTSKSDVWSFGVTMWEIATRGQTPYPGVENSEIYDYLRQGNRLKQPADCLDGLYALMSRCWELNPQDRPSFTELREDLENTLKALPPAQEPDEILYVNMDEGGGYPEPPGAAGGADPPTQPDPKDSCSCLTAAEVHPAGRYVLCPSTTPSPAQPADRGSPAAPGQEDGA
pIC50: −log10 of the molar value.
// reported pIC50 per item

Known pIC50 results, listed for orientation:
COC[C@H](C)Nc1ncc2c(-c3cnn(Cc4cncc(C)n4)c3)cc([C@H]3CC[C@H](O)CC3)n2n1	≥ 7.00
COC[C@H](C)Nc1ncc2c(-c3cncc(C(N)=O)c3)cc([C@H]3CC[C@H](O)CC3)n2n1	6.00 to 7.00
COC[C@H](C)Nc1ncc2c(CC#N)cc([C@H]3CC[C@H](O)CC3)n2n1	6.00 to 7.00
COC[C@H](C)Nc1ncc2c(-c3cnn(C(C)(C)C(=O)N4C[C@@H](C)N[C@@H](C)C4)c3)cc([C@H]3CC[C@@H](O)CC3)n2n1	≥ 7.00

// query Quick one: pIC50 for COC[C@H](C)Nc1ncc2c(C3=C[C@H]4CC[C@@H](C3)N4C(=O)N3CCOCC3)cc([C@H]3CC[C@H](O)CC3)n2n1 ?
// result ≥ 7.00

// query Look at this molecule and give its reported pIC50. C[C@H](CC(F)(F)F)Nc1ncc2c(C3=C[C@H]4CC[C@@H](C3)N4C(=O)OC(C)(C)C)cc([C@H]3CC[C@H](O)CC3)n2n1
// result ≥ 7.00
